- MEASURED TARGET: Nonstructural protein 3 (Zika virus)
- PROTOCOL: Functional biochemical assay to identify treatments for viral infectious disease that targets Zika NS2B-NS3 protease. Utilizing a direct enzyme activity measurement method, reading the fluorescence intensity is used to characterize the relative potency of inhibitors as % inhibition. Synthetic construct has been made based on Zika virus (strain PRVABC59) by Centre for Medicines Discovery, University of Oxford, and the assay has been performed by Stanford University.The protocol is publicly available: dx.doi.org/10.17504/protocols.io.4r3l29533v1y/v1
- CONDITION PARAMETERS: Concentration 25.0 uM, Number of replicates 1.0
Measured inhibition, listed per entry for reference.
Respond with the bare value in %.

Below are worked cases with known answers.
CC[C@H]1CO[C@H](C)CN1c1ccc(C=O)cn1 ... 61.5
O=Cc1ccc(N2CCC(C(=O)O)CC2)cc1 ... 66
Cc1cc(NS(=O)(=O)c2ccc(S(=O)(=O)F)cc2)c[nH]c1=O ... 60.6
O=Cc1ccc(N2CCC(C(=O)O)CC2)o1 ... 55.4

Request the reported inhibition associated with Cc1c(C=O)c2ccccn2c1C#N
48.9

Please report the recorded inhibition for O=Cc1ccc(N2CCCCCC2)cc1 .
46.5

Looking for the measured inhibition of O=Cc1ccc(N2CCCCC2)cc1 , can you help?
49

Recorded inhibition for O=Cc1nc(-c2ccccc2Cl)n2ccccc12 , please?
48.3

Any idea what inhibition was measured for Cc1nc(C=O)c2ccccn12 ?
45

For Nc1ccc2ccc(B(O)O)cc2c1 , what is its reported inhibition?
81

Return reported inhibition; argument: CN(C)c1ccc(C=C(C#N)C(N)=O)cc1
50.7

Tell me the measured inhibition of Cc1c(C=O)c2ccccn2c1C(=O)c1ccncc1 , please.
48.3
